Cited source for all entries: ChEMBL document CHEMBL3233008

target: Neuronal acetylcholine receptor; alpha4/beta2 (Rattus norvegicus, UniProt P09483+P12390); assay: Displacement of [3H]epibatidine from rat alpha4/beta2 nAChR expressed in HEK293 cells
Sequence (P12390 whole entry, one chain of several): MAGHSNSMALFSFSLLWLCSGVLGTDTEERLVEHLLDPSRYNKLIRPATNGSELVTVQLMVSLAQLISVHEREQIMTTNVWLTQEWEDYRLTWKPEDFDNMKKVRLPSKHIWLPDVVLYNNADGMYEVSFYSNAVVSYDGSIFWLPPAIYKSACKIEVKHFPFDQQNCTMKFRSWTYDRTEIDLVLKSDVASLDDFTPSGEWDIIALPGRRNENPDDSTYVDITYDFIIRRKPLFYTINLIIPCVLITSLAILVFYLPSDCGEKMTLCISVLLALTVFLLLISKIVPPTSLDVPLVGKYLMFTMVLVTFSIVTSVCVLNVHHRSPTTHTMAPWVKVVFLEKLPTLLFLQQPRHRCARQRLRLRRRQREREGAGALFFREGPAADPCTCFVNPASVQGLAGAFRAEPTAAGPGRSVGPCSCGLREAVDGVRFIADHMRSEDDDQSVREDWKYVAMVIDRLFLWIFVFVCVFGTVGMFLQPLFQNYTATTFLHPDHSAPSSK
pKi: −log10 of the molar value.

{"columns": ["Compound", "Comparison sign", "pKi"],
 "data": [
  ["COc1cccc(C2c3cc(OC)c(OC)cc3CCN2C)c1 (stereo unspecified)", "=", 3.52],
  ["COc1cc2c(cc1O)CCN1CC[C@@H]3CCCC[C@@]231 (relative stereo)", "=", 5.07],
  ["c1c2c(cc3c1OCO3)C1CCCN1CC2 (racemic)", "=", 6.26],
  ["c1c2c(cc3c1OCO3)[C@]13CCCC[C@H]1CCN3CC2 (relative stereo)", "=", 5.14],
  ["COc1cc2c(cc1O)CCN(C)C2", "=", 5.00],
  ["CCC1c2cc(OC)c(OC)cc2CCN1C (stereo unspecified)", "=", 3.52],
  ["COc1cc2c(cc1O)CN(C)CC2", "=", 5.77],
  ["COc1cc2c(cc1OC)CN(C)CC2", "=", 6.06],
  ["CN1CCc2cc(O)c(O)cc2C1", "=", 5.17],
  ["Oc1cc2c(cc1O)[C@]13CCCC[C@H]1CCN3CC2 (relative stereo)", "=", 5.82],
  ["COc1cc2c(cc1O)[C@]13CCCC[C@H]1CCN3CC2 (relative stereo)", "=", 4.74],
  ["COc1cc2c(cc1O)C1CCCN1CC2 (racemic)", "=", 5.47],
  ["Oc1cc2c(cc1O)C1CCCN1CC2 (racemic)", "=", 4.96],
  ["COc1cc2c(cc1O)CCN1CCCC21 (racemic)", "=", 4.00],
  ["COc1ccc(C2c3cc(OC)c(OC)cc3CCN2C)cc1OC (stereo unspecified)", "<", 3.52],
  ["COc1cc2c(cc1OC)C(c1ccccc1)N(C)CC2 (stereo unspecified)", "=", 4.00],
  ["CCCCC1c2cc(OC)c(OC)cc2CCN1C (stereo unspecified)", "=", 4.52],
  ["COc1cc2c(cc1OC)C1CCCN1CC2 (racemic)", "=", 5.26],
  ["COc1cc2c(cc1OC)[C@]13CCCC[C@H]1CCN3CC2 (relative stereo)", "=", 4.00],
  ["COc1cc2c(cc1OC)C(C1CCCCC1)N(C)CC2 (stereo unspecified)", "=", 3.52],
  ["CN1CCc2cc3c(cc2C1)OCO3", "=", 5.77]
]}

----------
target: Neuronal acetylcholine receptor; alpha3/beta4 (Rattus norvegicus, UniProt P04757+P12392); experiment: Antagonist activity at rat alpha3/beta4 nAChR expressed in HEK293 cells assessed as inhibition of (S)-nicotine-induced activity by FLIPR membrane potential blue assay
Sequence (P04757 whole entry, one chain of several): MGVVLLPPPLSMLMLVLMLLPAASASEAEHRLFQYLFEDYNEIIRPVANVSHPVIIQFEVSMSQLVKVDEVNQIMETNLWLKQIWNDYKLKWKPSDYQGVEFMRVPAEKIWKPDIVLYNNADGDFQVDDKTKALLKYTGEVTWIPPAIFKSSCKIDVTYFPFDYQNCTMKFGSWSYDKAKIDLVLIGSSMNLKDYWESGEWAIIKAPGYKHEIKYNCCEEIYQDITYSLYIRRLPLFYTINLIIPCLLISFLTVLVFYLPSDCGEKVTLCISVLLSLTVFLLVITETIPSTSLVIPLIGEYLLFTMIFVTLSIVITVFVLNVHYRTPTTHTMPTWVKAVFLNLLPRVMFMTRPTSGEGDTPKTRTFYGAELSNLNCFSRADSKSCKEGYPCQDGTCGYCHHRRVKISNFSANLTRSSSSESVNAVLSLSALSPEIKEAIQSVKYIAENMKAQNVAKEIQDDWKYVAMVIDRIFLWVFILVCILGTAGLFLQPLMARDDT
pIC50: −log10 of the molar value.
Quick rule: pIC50 of at least 4 means yes, below that means no.

{"columns": ["Molecule", "Answer label"],
 "data": [
  ["COc1cc2c(cc1O)CCN1CCCC21 (racemic)", "no"],
  ["CN1CCc2cc3c(cc2C1)OCO3", "no"],
  ["c1c2c(cc3c1OCO3)[C@]13CCCC[C@H]1CCN3CC2 (relative stereo)", "yes"],
  ["Oc1cc2c(cc1O)[C@]13CCCC[C@H]1CCN3CC2 (relative stereo)", "yes"],
  ["COc1cc2c(cc1O)[C@]13CCCC[C@H]1CCN3CC2 (relative stereo)", "yes"],
  ["COc1cc2c(cc1OC)[C@]13CCCC[C@H]1CCN3CC2 (relative stereo)", "yes"],
  ["COc1cc2c(cc1O)CN(C)CC2", "no"],
  ["COc1cc2c(cc1O)CCN(C)C2", "no"],
  ["CN1CCc2cc(O)c(O)cc2C1", "no"],
  ["COc1cc2c(cc1O)CCN1CC[C@@H]3CCCC[C@@]231 (relative stereo)", "yes"],
  ["Oc1cc2c(cc1O)C1CCCN1CC2 (racemic)", "no"],
  ["COc1cc2c(cc1O)C1CCCN1CC2 (racemic)", "no"]
]}

----------
biological target: Sodium-dependent noradrenaline transporter (Homo sapiens, UniProt P23975)
Sequence (P23975 whole entry): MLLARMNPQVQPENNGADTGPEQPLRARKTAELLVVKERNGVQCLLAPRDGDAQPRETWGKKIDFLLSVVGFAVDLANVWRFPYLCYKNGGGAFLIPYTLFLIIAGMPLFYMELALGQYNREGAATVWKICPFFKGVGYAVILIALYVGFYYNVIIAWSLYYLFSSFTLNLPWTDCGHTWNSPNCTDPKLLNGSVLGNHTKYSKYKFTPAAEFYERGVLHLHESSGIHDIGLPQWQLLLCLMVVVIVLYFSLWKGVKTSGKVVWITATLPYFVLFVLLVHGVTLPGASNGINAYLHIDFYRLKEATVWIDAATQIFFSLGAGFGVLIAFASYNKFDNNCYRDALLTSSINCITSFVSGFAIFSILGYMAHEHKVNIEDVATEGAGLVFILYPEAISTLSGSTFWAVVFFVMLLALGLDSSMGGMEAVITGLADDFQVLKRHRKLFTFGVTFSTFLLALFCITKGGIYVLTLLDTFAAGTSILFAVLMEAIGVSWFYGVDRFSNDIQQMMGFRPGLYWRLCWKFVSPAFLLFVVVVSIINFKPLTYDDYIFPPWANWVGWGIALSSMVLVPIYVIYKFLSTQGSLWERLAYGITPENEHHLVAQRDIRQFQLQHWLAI
Metric name: Ki (µM)

{"columns": ["Smiles", "Metric name", "Recorded result"],
 "data": [
  ["COc1cc2c(cc1OC)CN(C)CC2", "Ki", 129]
]}

----------
molecular target: Neuronal acetylcholine receptor; alpha4/beta4 (Rattus norvegicus, UniProt P09483+P12392); assay: Displacement of [3H]epibatidine from rat alpha4/beta4 nAChR expressed in HEK293 cells
Sequence (P09483 whole entry): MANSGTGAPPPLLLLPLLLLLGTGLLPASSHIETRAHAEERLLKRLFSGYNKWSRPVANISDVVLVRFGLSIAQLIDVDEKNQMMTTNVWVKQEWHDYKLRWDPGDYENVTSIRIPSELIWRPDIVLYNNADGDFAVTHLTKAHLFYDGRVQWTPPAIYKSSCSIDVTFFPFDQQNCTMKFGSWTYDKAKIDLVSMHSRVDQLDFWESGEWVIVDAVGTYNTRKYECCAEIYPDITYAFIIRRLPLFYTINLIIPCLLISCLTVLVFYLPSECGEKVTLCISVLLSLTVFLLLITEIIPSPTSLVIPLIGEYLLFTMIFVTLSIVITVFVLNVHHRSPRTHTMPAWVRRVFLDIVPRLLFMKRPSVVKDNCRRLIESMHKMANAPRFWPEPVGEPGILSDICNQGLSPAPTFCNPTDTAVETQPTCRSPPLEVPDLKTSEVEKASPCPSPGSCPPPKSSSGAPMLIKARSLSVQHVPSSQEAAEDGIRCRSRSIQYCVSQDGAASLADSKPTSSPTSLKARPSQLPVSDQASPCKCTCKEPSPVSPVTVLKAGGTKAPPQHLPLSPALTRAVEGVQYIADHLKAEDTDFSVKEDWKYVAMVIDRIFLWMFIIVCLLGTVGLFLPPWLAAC
Sequence (P12392 whole entry): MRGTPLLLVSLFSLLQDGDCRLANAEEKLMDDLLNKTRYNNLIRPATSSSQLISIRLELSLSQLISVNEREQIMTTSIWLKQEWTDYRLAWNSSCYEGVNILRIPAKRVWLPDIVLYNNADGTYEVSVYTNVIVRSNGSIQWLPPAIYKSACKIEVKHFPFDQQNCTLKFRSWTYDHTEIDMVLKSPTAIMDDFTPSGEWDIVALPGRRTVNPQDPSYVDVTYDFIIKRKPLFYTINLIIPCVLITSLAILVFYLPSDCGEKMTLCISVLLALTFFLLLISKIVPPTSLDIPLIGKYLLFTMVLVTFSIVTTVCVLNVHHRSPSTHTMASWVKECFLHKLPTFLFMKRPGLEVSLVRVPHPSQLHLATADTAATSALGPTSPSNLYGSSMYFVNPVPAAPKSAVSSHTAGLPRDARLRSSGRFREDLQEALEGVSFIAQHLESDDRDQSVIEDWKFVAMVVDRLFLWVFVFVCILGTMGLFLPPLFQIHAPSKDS
Metric name: Ki (µM)

{"columns": ["Molecule", "Recorded result"],
 "data": [
  ["CN1CCc2cc3c(cc2C1)OCO3", 50],
  ["Oc1cc2c(cc1O)[C@]13CCCC[C@H]1CCN3CC2 (relative stereo)", 19],
  ["c1c2c(cc3c1OCO3)[C@]13CCCC[C@H]1CCN3CC2 (relative stereo)", 50],
  ["CN1CCc2cc(O)c(O)cc2C1", 100],
  ["Oc1cc2c(cc1O)C1CCCN1CC2 (racemic)", 50],
  ["COc1cc2c(cc1OC)C1CCCN1CC2 (racemic)", 100],
  ["COc1cc2c(cc1O)CCN1CCCC21 (racemic)", 100],
  ["COc1cc2c(cc1OC)[C@]13CCCC[C@H]1CCN3CC2 (relative stereo)", 100],
  ["COc1cc2c(cc1O)CCN(C)C2", 100],
  ["COc1cc2c(cc1O)CN(C)CC2", 100],
  ["COc1cc2c(cc1O)[C@]13CCCC[C@H]1CCN3CC2 (relative stereo)", 23]
]}

----------
target: Nicotinic acetylcholine receptor alpha-4/beta-2 (Mus musculus, UniProt Q8R493+Q9ERK7); test: Antagonist activity at mouse alpha4/beta2 nAChR expressed in HEK293 cells assessed as inhibition of (S)-nicotine-induced activity by FLIPR membrane potential blue assay
Sequence (Q9ERK7 whole entry): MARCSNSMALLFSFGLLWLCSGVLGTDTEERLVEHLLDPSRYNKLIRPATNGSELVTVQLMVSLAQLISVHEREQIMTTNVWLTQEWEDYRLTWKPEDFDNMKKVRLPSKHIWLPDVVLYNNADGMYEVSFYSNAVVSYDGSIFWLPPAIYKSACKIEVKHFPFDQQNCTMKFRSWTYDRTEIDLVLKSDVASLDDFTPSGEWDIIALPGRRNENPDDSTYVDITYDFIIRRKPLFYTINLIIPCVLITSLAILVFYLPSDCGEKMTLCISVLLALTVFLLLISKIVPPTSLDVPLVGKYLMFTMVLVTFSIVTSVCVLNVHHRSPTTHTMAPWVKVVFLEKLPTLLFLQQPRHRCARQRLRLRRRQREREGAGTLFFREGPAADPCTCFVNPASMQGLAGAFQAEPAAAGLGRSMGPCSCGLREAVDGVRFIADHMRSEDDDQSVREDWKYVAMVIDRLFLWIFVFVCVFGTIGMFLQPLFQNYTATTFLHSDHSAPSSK
Sequence (Q8R493 whole entry): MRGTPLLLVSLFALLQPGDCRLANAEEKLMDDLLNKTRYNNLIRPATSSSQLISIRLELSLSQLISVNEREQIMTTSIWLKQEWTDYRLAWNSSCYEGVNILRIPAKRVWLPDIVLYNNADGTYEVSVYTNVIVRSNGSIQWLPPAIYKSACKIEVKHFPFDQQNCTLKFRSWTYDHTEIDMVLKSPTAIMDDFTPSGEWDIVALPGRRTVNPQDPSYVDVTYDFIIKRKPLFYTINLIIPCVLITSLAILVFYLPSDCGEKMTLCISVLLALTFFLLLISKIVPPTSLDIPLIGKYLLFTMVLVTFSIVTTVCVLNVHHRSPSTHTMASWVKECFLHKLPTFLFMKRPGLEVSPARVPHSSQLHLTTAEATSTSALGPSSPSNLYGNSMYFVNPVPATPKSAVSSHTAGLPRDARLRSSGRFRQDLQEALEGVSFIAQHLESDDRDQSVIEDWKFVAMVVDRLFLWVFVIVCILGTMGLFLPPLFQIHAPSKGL
Each entry below carries its recorded IC50.

{"columns": ["Molecule", "Study system", "Unit info", "Comparison sign", "IC50"],
 "data": [
  ["CN1CCc2cc3c(cc2C1)OCO3", "Nicotinic acetylcholine receptor alpha-4/beta-2 (Mus musculus, UniProt Q8R493+Q9ERK7)", "µM", "=", 2.6],
  ["COc1cc2c(cc1OC)C1CCCN1CC2 (racemic)", "Nicotinic acetylcholine receptor alpha-4/beta-2 (Mus musculus, UniProt Q8R493+Q9ERK7)", "µM", "=", 31],
  ["CCC1c2cc(OC)c(OC)cc2CCN1C (configuration not stated)", "Nicotinic acetylcholine receptor alpha-4/beta-2 (Mus musculus, UniProt Q8R493+Q9ERK7)", "µM", ">", 300],
  ["COc1cc2c(cc1OC)[C@]13CCCC[C@H]1CCN3CC2 (relative stereo)", "Nicotinic acetylcholine receptor alpha-4/beta-2 (Mus musculus, UniProt Q8R493+Q9ERK7)", "µM", "=", 31],
  ["COc1ccc(C2c3cc(OC)c(OC)cc3CCN2C)cc1OC (configuration not stated)", "Nicotinic acetylcholine receptor alpha-4/beta-2 (Mus musculus, UniProt Q8R493+Q9ERK7)", "µM", ">", 300],
  ["COc1cc2c(cc1O)CN(C)CC2", "Nicotinic acetylcholine receptor alpha-4/beta-2 (Mus musculus, UniProt Q8R493+Q9ERK7)", "µM", "=", 4.4],
  ["Oc1cc2c(cc1O)[C@]13CCCC[C@H]1CCN3CC2 (relative stereo)", "Nicotinic acetylcholine receptor alpha-4/beta-2 (Mus musculus, UniProt Q8R493+Q9ERK7)", "µM", "=", 0.58],
  ["COc1cc2c(cc1O)C1CCCN1CC2 (racemic)", "Nicotinic acetylcholine receptor alpha-4/beta-2 (Mus musculus, UniProt Q8R493+Q9ERK7)", "µM", "=", 23],
  ["c1c2c(cc3c1OCO3)C1CCCN1CC2 (racemic)", "Nicotinic acetylcholine receptor alpha-4/beta-2 (Mus musculus, UniProt Q8R493+Q9ERK7)", "µM", "=", 3.3],
  ["CCCCC1c2cc(OC)c(OC)cc2CCN1C (configuration not stated)", "Nicotinic acetylcholine receptor alpha-4/beta-2 (Mus musculus, UniProt Q8R493+Q9ERK7)", "µM", ">", 300],
  ["COc1cccc(C2c3cc(OC)c(OC)cc3CCN2C)c1 (configuration not stated)", "Nicotinic acetylcholine receptor alpha-4/beta-2 (Mus musculus, UniProt Q8R493+Q9ERK7)", "µM", ">", 300],
  ["COc1cc2c(cc1O)CCN(C)C2", "Nicotinic acetylcholine receptor alpha-4/beta-2 (Mus musculus, UniProt Q8R493+Q9ERK7)", "µM", "=", 33]
]}

----------
target: Neuronal acetylcholine receptor; alpha3/beta4 (Rattus norvegicus, UniProt P04757+P12392); test: Displacement of [3H]epibatidine from rat alpha3/beta4 nAChR expressed in HEK293 cells
pKi: −log10 of the molar value.
Each entry below carries its recorded pKi.

{"columns": ["Compound", "Study system", "pKi"],
 "data": [
  ["c1c2c(cc3c1OCO3)C1CCCN1CC2 (racemic)", "Neuronal acetylcholine receptor; alpha3/beta4 (Rattus norvegicus, UniProt P04757+P12392)", 4.00],
  ["COc1cc2c(cc1O)CCN1CCCC21 (racemic)", "Neuronal acetylcholine receptor; alpha3/beta4 (Rattus norvegicus, UniProt P04757+P12392)", 3.52],
  ["c1c2c(cc3c1OCO3)[C@]13CCCC[C@H]1CCN3CC2 (relative stereo)", "Neuronal acetylcholine receptor; alpha3/beta4 (Rattus norvegicus, UniProt P04757+P12392)", 4.52],
  ["COc1cc2c(cc1O)[C@]13CCCC[C@H]1CCN3CC2 (relative stereo)", "Neuronal acetylcholine receptor; alpha3/beta4 (Rattus norvegicus, UniProt P04757+P12392)", 4.52],
  ["CN1CCc2cc(O)c(O)cc2C1", "Neuronal acetylcholine receptor; alpha3/beta4 (Rattus norvegicus, UniProt P04757+P12392)", 4.00],
  ["COc1cc2c(cc1O)C1CCCN1CC2 (racemic)", "Neuronal acetylcholine receptor; alpha3/beta4 (Rattus norvegicus, UniProt P04757+P12392)", 4.00],
  ["COc1cc2c(cc1OC)[C@]13CCCC[C@H]1CCN3CC2 (relative stereo)", "Neuronal acetylcholine receptor; alpha3/beta4 (Rattus norvegicus, UniProt P04757+P12392)", 4.00],
  ["COc1cc2c(cc1O)CCN(C)C2", "Neuronal acetylcholine receptor; alpha3/beta4 (Rattus norvegicus, UniProt P04757+P12392)", 3.52],
  ["COc1cc2c(cc1OC)C1CCCN1CC2 (racemic)", "Neuronal acetylcholine receptor; alpha3/beta4 (Rattus norvegicus, UniProt P04757+P12392)", 3.52],
  ["CN1CCc2cc3c(cc2C1)OCO3", "Neuronal acetylcholine receptor; alpha3/beta4 (Rattus norvegicus, UniProt P04757+P12392)", 3.52],
  ["COc1cc2c(cc1OC)CN(C)CC2", "Neuronal acetylcholine receptor; alpha3/beta4 (Rattus norvegicus, UniProt P04757+P12392)", 3.52],
  ["Oc1cc2c(cc1O)C1CCCN1CC2 (racemic)", "Neuronal acetylcholine receptor; alpha3/beta4 (Rattus norvegicus, UniProt P04757+P12392)", 4.00],
  ["COc1cc2c(cc1O)CN(C)CC2", "Neuronal acetylcholine receptor; alpha3/beta4 (Rattus norvegicus, UniProt P04757+P12392)", 3.52],
  ["Oc1cc2c(cc1O)[C@]13CCCC[C@H]1CCN3CC2 (relative stereo)", "Neuronal acetylcholine receptor; alpha3/beta4 (Rattus norvegicus, UniProt P04757+P12392)", 4.52],
  ["COc1cc2c(cc1O)CCN1CC[C@@H]3CCCC[C@@]231 (relative stereo)", "Neuronal acetylcholine receptor; alpha3/beta4 (Rattus norvegicus, UniProt P04757+P12392)", 4.00]
]}
